- System: K-562 leukemia growth, % test/control
- assay_protocol: Anticancer human tumor K-562 cell line growth inhibition;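 note: spheroids exposed to compounds for 7 days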
- measurement_conditions: curve of first compound; second compound 1 µM; spheroids with HUVEC and MSC
pIC50: −log10 of the molar value.
result_type: pIC50

Consider the worked cases shown below.
| molecule | pIC50 |
| --- | --- |
| COc1ccc([C@@H](O)c2cc(-c3ncnc4cc(N5CCOCC5)ccc34)c(F)cc2Cl)nn1 + NC1CCC(NC2CC2c2ccccc2)CC1 | < 5.00 |
| CCN(c1cc(-c2ccc(CN3CCOCC3)cc2)cc(C(=O)NCc2c(C)cc(C)[nH]c2=O)c1C)C1CCOCC1 + NC1CCC(NC2CC2c2ccccc2)CC1 | < 5.52 |
| Cn1ncnc1C1c2n[nH]c(=O)c3cc(F)cc(c23)NC1c1ccc(F)cc1 (stereo not given) + NC1CC1c1ccc(-c2cccc(O)c2)cc1 | < 7.00 |
| CC1COCCN1c1cc(-c2ccnn2C)c2ccnc(-c3ccn[nH]3)c2n1 (stereo not given) + NC1CC1c1ccc(-c2cccc(O)c2)cc1 | > 8.50 |

As a next step, examine the molecule that follows.
Input line: Entry under review: O=C(c1cc(Cc2n[nH]c(=O)c3ccccc23)ccc1F)N1CCN(C(=O)C2CC2)CC1 + NC1CC1c1ccc(-c2cccc(O)c2)cc1 . Reported pIC50?
Output line: < 5.00

Reference source for all entries: PubChem BioAssay AID1918948
